- Test system: JCK
- Test Method Notes: qHTS profiling for inhibitors of Plasmodium falciparum proliferation (AID 504749);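 further: 0% = DMSO vehicle and full inhibition = artemisinin control; nearly all actives have a fitted effect of over 60% in size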
- Study Conditions: P. falciparum in erythrocytes, SYBR Green DNA, 72 h; series mostly up to 12.8 µM
Records with an inconclusive call do not appear. Calls of active or inactive are those of the source. The call rests on the fitted dose curve; in most records, active means well fitted inhibition curve with a large enough effect; inconclusive means small, poorly fitted or top-dose-only effect; inactive means flat fitted curve, though single readings scatter.
Return exactly one item of yes (1) (active), no (0) (inactive)

Completed entries (count: 8):
C[C@@]12C=CC(=O)C=C1CCC1C3CC(O)[C@@](O)(C(=O)CO)[C@]3(C)CC(O)[C@]12F (stereo partly drawn): no (0)
CN(C)CCOC(=O)[C@@H](c1ccccc1)C1(O)CCCC1: no (0)
CC(=O)O[C@@]1(C(C)=O)CCC2C3CC(C)C4=CC(=O)CC[C@@]4(C)C3CC[C@]21C (stereo partly drawn): no (0)
CC(=C(CCOP(=O)(O)O)SC(=O)c1ccccc1)N(C=O)Cc1cnc(C)nc1N: no (0)
CC(=O)N(C[C@@H](C)C(=O)O)c1c(I)cc(I)c(N)c1I: no (0)
CC(C)Oc1ccc2c(=O)cc(-c3ccccc3)oc2c1: no (0)
O=C(O)[C@@H]1CCCN1: no (0)
C[C@]12CCC(=O)C=C1CCC1C2C(=O)C[C@]2(C)C1CC[C@]2(O)C(=O)CO (stereo partly drawn): no (0)

Let's switch to this compound now.
IN: Could you please tell me the result logged for "CC[C@H](Cc1c(I)cc(I)c(N)c1I)C(=O)O" in this assay?
OUT: no (0)

---

As shown below, each of these compounds has a reported activity change, negative = inhibition value.
- Test Method Notes: qHTS Assay for Lipid Storage Modulators (AID 1519); further: on the % scale 0 is the no-effect control and ±100 the full control effect
- Study Conditions: Drosophila S3 cells, BODIPY lipid droplet/cell ratio, laser cytometry; at 57.5 µM (top of the series); cells loaded with oleic acid
Records with an inconclusive call do not appear.
Respond with the bare value in %.

The examples below pair each entry with its known result.
COc1ccc2c(c1)[C@]1(C)CCC(=O)C[C@H]1CC2: 8.23
CC(=O)C1CCC2C3CC=C4CC(O)CC[C@@]4(C)C3CC[C@]12C (stereo partly specified): 2.94
Nc1ncnc2c1ncn2C1OC(COP(=O)(O)O)C(O)C1O (stereo unspecified): 5.46
CC1=C(CCC(=O)O)c2cc3nc(cc4[nH]c(cc5[nH]c(cc1n2)c(C)c5C(C)O)c(C)c4C(C)O)C(C)=C3CCC(=O)O (stereo unspecified): 3.12
C[C@@H]1C(=O)O[C@H]2[C@@H](O)[C@@]34[C@H]5CC(C(C)(C)C)[C@]36[C@@H](OC(=O)[C@@H]6O)O[C@@]4(C(=O)O5)[C@@]12O (stereo partly specified): 7.16

IN: # get_value(readout='activity change, negative = inhibition', item= "CN1[C@H](CC(=O)c2ccccc2)CCC[C@H]1C[C@@H](O)c1ccccc1" )
OUT: -2.41

IN: May I ask what activity change, negative = inhibition has been recorded for COc1ccc(C2Oc3cc(OC)cc(OC)c3CC2O)cc1 (stereo unspecified) ?
OUT: 5.15

IN: Can you look up the measured activity change, negative = inhibition of CC1(C)C2(Cl)C(Cl)C(Cl)C(Cl)(C(Cl)Cl)C1(Cl)C2Cl (stereo unspecified) for me?
OUT: 3.3

IN: Which activity change, negative = inhibition value is on record for C=CCCCCCCCCCCC/C=C/C(O)COC(C)=O (stereo unspecified) ?
OUT: 8.71

IN: For the compound shown here, COC(=O)C(N)CS (stereo unspecified) , give the reported activity change, negative = inhibition.
OUT: 6.93

IN: State the recorded activity change, negative = inhibition for this entry: "COC(=O)c1cc(OC)c(=O)c2c(OC)c(OC)ccc2c1"
OUT: 6.06

This collection of values is drawn from PubChem BioAssay (NCATS).
